experimental_system: endogenous kinases and other proteins enriched by Kinobeads from mixed cancer cell lysates (Homo sapiens, UniProt Q6ZSR9)
Construct: endogenous in cells
Sequence (Q6ZSR9 whole entry): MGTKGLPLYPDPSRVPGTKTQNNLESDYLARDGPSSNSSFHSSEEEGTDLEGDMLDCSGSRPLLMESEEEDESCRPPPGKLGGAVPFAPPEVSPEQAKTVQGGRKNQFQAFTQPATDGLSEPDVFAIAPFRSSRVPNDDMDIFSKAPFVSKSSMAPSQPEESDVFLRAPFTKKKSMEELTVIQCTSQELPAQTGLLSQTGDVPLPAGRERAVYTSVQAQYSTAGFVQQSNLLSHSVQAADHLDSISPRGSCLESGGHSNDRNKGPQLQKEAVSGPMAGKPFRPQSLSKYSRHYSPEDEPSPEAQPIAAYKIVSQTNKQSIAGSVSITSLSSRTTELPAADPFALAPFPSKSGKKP
assay_notes: Kinobeads pulldown, full dose-response (eight doses)
condition_notes: target Q6ZSR9
readout: EC50
Lab note: write values as number then unit, every time.

Cn1cc(-c2nc(N[C@@H]3CCCC[C@@H]3N)c(F)c3c2C(=O)NC3)cn1 has a reported EC50 of 566 nM

====

experimental_system: endogenous kinases and other proteins enriched by Kinobeads from mixed cancer cell lysates (Homo sapiens)
Construct: endogenous in cells
assay_notes: Kinobeads pulldown, full dose-response (eight doses);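 note: competition with Kinobeads ε after inhibitor preincubation in lysate (5 mg/ml protein) for 45 min at 4 °C, DMSO control, doses 0.3–1,000 nM, label-free LC–MS/MS quantification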
condition_notes: target PDPK1;PDPK2P
readout: pEC50
pEC50 is a log-scale quantity: -log10 of the concentration expressed in molar.

Cn1cc(-c2nc(N[C@@H]3CCCC[C@@H]3N)c(F)c3c2C(=O)NC3)cn1 [TAK659] has a reported pEC50 of 6.19
